target: human dopamine D2 (Long form) receptors (Homo sapiens, UniProt P14416); assay: biochemical; settings: 0.2 nM [3H]spiperone, CHO K1 membranes, 60 min, 25° C.; apparent Ki from IC50 (Cheng-Prusoff)
Sequence (P14416 whole entry): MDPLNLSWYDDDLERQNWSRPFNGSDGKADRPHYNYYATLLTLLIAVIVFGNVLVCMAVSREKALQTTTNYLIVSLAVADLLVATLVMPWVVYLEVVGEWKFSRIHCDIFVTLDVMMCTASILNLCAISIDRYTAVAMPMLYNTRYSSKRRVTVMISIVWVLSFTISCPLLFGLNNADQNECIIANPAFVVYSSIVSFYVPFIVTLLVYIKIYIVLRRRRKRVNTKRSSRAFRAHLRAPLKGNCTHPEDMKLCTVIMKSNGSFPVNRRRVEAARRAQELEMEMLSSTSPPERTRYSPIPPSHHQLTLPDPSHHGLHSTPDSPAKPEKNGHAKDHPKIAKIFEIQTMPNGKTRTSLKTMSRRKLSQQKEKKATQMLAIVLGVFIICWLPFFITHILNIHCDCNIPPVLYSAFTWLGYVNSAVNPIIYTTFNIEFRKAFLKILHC
READOUT KIND: Ki

// below: answered compounds
Clc1ccc(N2CCN(Cc3ccc4ccccc4n3)CC2)cc1Cl    > 5.88 µM
Cc1ccc(N2CCN(Cc3ccc4ccccc4n3)CC2)cc1Cl    > 5.88 µM
OCc1ccc(N2CCN(Cc3cnc4ccccc4c3)CC2)cc1Br    > 5.88 µM

Now for a further compound.
## Input Complete the entry with Ki for Cc1ccc(N2CCN(Cc3ccc4ccccc4n3)CC2)cc1
## Output 2.85 µM

====

Target: human recombinant dopamine D4.2 receptor (Homo sapiens, UniProt P21917, DEL265-296)
Construct: expressed in transfected cells; host or cells: CHO K1
Sequence (P21917 with tags, fused parts or gaps DEL265-296): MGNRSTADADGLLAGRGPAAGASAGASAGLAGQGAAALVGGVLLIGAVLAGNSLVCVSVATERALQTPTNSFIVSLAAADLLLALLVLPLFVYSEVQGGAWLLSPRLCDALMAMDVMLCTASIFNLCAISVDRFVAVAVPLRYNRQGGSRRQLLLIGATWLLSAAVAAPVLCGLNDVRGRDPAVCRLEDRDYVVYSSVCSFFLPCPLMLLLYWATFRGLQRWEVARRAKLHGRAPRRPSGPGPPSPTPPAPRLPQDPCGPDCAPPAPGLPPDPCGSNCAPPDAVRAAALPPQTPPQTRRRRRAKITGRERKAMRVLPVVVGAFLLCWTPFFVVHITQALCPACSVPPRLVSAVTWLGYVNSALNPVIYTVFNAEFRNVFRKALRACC
Test: Receptor binding assay, D4.2 dopamine receptor ([3H]spiperone competition, CHO K1 cell membranes)
Conditions: 0.2 nM [3H]spiperone, CHO K1 membranes, 60 min, 25° C.; apparent Ki from IC50 (Cheng-Prusoff); read-out: D4 Ki
For each entry below, report its pKi value.
Answers are plain numbers, as −log10 of the molar value.

c1ccc(N2CCN(Cc3ccc4ncccc4c3)CC2)cc1    7.59
Brc1cccc(N2CCN(Cc3ccc4ccccc4n3)CC2)c1    7.34

Next molecule, please.
## Input For the molecule c1ccc(N2CCN(Cc3cnc4ccccc4c3)CC2)cc1 , give its reported pKi.
## Output 7.80
